# System: Plasmodium falciparum
# Assay: Antiplasmodial activity against Plasmodium falciparum K1 as [3H]hypoxanthine uptake
# Type: functional, organism-based
# Condition Set: K1, 72 h
Observed Property: pIC50
Numbers only, as −log10 of the molar value.

> print(dat)
                                   compound  observed.property  measured.result
1  O=C(CCCOc1ccccc1)NC[C@H]1O[C@@H](n2cnc3c(NCc4ccc(Oc5ccccc5)cc4)ncnc32)[C@H](O)[C@@H]1O              pIC50             5.55
2  CCN(CC)CCCC(C)Nc1ccnc2cc(Cl)ccc12 (configuration not stated)              pIC50             6.05
3  O=C(NC[C@H]1O[C@@H](n2cnc3c(NCc4ccc(Oc5ccccc5)cc4)ncnc32)[C@H](O)[C@@H]1O)c1ccc2c(c1)ncn2Cc1cccc2ccccc12              pIC50             5.66
4  O=C(CCCc1ccccc1)NC[C@H]1O[C@@H](n2cnc3c(NCc4ccc(Oc5ccccc5)cc4)ncnc32)[C@H](O)[C@@H]1O              pIC50             5.59
5  O=C(NC[C@H]1O[C@@H](n2cnc3c(NCc4ccc(Oc5ccccc5)cc4)ncnc32)[C@H](O)[C@@H]1O)c1ccc(Oc2ccccc2)cc1              pIC50             5.48
6  COCCCn1c(=O)[nH]c2cc(C(=O)NC[C@H]3O[C@@H](n4cnc5c(NCc6ccc(Oc7ccccc7)cc6)ncnc54)[C@H](O)[C@@H]3O)ccc21              pIC50             6.05

What the record says about "C=CCn1cnc2cc(C(=O)NC[C@H]3O[C@@H](n4cnc5c(NCc6ccc(Oc7ccccc7)cc6)ncnc54)[C@H](O)[C@@H]3O)ccc21" : pIC50 is 5.57
